test system: human cervix carcinoma (HeLa) cells; assay: Cytostatic activity, HeLa cell proliferation; format: cell-based; conditions: mean ± SD of three experiments; highest concentration tested 250 µM; 4 days; read-out: Toxicity (IC50) HeLa
result_type: pIC50
Answers are plain numbers, as −log10 of the molar value.

CN[C@H](CC(C)C)C(=O)N[C@H]1C(=O)N[C@@H](CC(N)=O)C(=O)N[C@H]2C(=O)N[C@H]3C(=O)N[C@H](C(=O)N[C@H](C(=O)NCCNC(=O)/C=C/c4ccc(Cl)cc4Cl)c4cc(O)cc(O)c4-c4cc3ccc4O)[C@H](O)c3ccc(c(Cl)c3)Oc3cc2cc(c3O[C@@H]2O[C@H](CO)[C@@H](O)[C@H](O)[C@H]2O[C@H]2C[C@](C)(N)[C@H](O)[C@H](C)O2)Oc2ccc(cc2Cl)[C@H]1O [Vanc-51]: 3.97
CN[C@H](CC(C)C)C(=O)N[C@H]1C(=O)N[C@@H](CC(N)=O)C(=O)N[C@H]2C(=O)N[C@H]3C(=O)N[C@H](C(=O)N[C@H](C(=O)NCC(=O)Nc4ccc([N+](=O)[O-])cc4)c4cc(O)cc(O)c4-c4cc3ccc4O)[C@H](O)c3ccc(c(Cl)c3)Oc3cc2cc(c3O[C@@H]2O[C@H](CO)[C@@H](O)[C@H](O)[C@H]2O[C@H]2C[C@](C)(N)[C@H](O)[C@H](C)O2)Oc2ccc(cc2Cl)[C@H]1O [Vanc-67]: 4.28
CNC(CC(C)C)C(=O)NC1C(=O)NC(CC(N)=O)C(=O)NC2C(=O)NC3C(=O)NC(C(=O)NC(C(=O)NCCCNC(=O)c4ccc(C(F)(F)F)cc4)c4cc(O)cc(O)c4-c4cc3ccc4O)C(O)c3ccc(c(Cl)c3)Oc3cc2cc(c3OC2OC(CO)C(O)C(O)C2OC2CC(C)(N)C(O)C(C)O2)Oc2ccc(cc2Cl)C1O (stereo not drawn) [Vanc-32]: 3.97
CCOc1ccc(-c2ccc(NC(=O)CNC(=O)C3NC(=O)C4NC(=O)C(NC(=O)C5NC(=O)C(CC(N)=O)NC(=O)C(NC(=O)C(CC(C)C)NC)C(O)c6ccc(c(Cl)c6)Oc6cc5cc(c6OC5OC(CO)C(O)C(O)C5OC5CC(C)(N)C(O)C(C)O5)Oc5ccc(cc5Cl)C4O)c4ccc(O)c(c4)-c4c(O)cc(O)cc43)cc2)cc1 (stereo not drawn) [Vanc-86]: 5.01

Proceed to the following item.
[in] # assay system human cervix carcinoma (HeLa) cells: give pIC50 of CN[C@H](CC(C)C)C(=O)N[C@H]1C(=O)N[C@@H](CC(N)=O)C(=O)N[C@H]2C(=O)N[C@H]3C(=O)N[C@H](C(=O)N[C@H](C(=O)NCC(=O)Nc4cc(OC)cc(OC)c4)c4cc(O)cc(O)c4-c4cc3ccc4O)[C@H](O)c3ccc(c(Cl)c3)Oc3cc2cc(c3O[C@@H]2O[C@H](CO)[C@@H](O)[C@H](O)[C@H]2O[C@H]2C[C@](C)(N)[C@H](O)[C@H](C)O2)Oc2ccc(cc2Cl)[C@H]1O [Vanc-17]
[out] 3.92

These measurements were taken from paper PMC6001238.
